- PROTOCOL SUMMARY: Liquid-liquid extraction from aqueous lithium-containing solution, ICP detection: potassium;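 note: analysis by ICP optical emission spectrometry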
- MEASUREMENT SETUP: feed B7 (cLi 0.833, cNa 55.60, cK 5.37 g/L, pH 12.05), 26°C; organic phase and phase ratio per example
ASSAY METRIC: cK, remaining aqueous phase R1 (g/L)

# MOLECULE, OBSERVED
measured = [
    ("COc1ccc(C(C)=O)c(O)c1OC [Example 33, 2-hydroxy-3,4-dimethoxyacetophenone]", 4.95),
    ("CC(=O)c1cc(OCc2ccccc2)ccc1O [Example 32, 2-hydroxy-5-benzyloxyacetophenone]", 5.01),
    ("O=C(c1ccccc1)c1cc(Cl)ccc1O [Example 38, 2-hydroxy-5-chlorodibenzophenone]", 4.99),
    ("CC(=O)c1cc(Cl)cc([N+](=O)[O-])c1O [Example 37, 5-chloro-2-hydroxy-3-nitrocetophenone]", 4.93),
]
